molecular target: T1, recombinant human IL-36R extracellular domain expressed with a C-terminal myc-myc-hexahistidine tag (human, UniProt Q9HB29 20-337); test: SPR (Biacore 4000), mAb captured on anti-human Fc, 25°C
T1 construct: also called hIL-36R-MMH; hIL-36R.mmH
T1 sequence (Q9HB29 other isoform, or with tags, fused parts or gaps limits assumed): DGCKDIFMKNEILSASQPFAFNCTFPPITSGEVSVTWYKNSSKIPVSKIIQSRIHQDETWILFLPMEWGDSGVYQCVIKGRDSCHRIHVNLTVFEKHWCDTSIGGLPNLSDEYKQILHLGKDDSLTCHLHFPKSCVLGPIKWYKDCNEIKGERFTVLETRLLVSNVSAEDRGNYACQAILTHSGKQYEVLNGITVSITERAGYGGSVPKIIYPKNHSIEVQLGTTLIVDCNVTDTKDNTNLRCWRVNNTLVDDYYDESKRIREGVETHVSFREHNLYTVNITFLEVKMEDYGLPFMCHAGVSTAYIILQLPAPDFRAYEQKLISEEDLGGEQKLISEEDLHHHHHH
This section presents binders with their documented koff values.
Please reply with the bare figure in s⁻¹ and do not write the unit itself.

# example entries with known answers
BINDER	koff / s⁻¹
H4H14731P (antibody, human IgG4 S228P, kappa, V domains shown) VH: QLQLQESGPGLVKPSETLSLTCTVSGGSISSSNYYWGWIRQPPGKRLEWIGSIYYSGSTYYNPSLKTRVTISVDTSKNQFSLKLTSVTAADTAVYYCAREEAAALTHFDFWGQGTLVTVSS VL: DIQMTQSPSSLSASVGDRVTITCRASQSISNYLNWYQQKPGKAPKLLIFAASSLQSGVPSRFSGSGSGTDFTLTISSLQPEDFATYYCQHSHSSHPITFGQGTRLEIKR	0.000343
H4H14699P2 (antibody, human IgG4 S228P, kappa, V domains shown, Fully human anti-IL-36R antibody) VH: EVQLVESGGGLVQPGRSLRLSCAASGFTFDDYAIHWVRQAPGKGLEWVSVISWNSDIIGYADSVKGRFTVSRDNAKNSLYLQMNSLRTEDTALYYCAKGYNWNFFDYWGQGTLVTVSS VL: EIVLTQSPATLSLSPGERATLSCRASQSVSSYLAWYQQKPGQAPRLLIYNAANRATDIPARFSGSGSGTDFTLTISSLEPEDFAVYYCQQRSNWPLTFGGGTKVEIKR	0.00168
H4H14706P2 (antibody, human IgG4 S228P, kappa, V domains shown) VH: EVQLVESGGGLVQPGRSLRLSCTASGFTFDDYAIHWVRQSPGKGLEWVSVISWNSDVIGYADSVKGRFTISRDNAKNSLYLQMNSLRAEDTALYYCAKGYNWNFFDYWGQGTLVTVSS VL: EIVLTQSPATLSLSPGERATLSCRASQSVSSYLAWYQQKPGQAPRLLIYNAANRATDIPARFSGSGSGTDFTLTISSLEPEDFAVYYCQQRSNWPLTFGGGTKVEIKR	0.000495
H4H14728P (antibody, human IgG4 S228P, kappa, V domains shown) VH: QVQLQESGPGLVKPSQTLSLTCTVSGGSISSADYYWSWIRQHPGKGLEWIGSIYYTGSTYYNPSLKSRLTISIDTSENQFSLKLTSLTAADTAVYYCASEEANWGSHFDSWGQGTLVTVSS VL: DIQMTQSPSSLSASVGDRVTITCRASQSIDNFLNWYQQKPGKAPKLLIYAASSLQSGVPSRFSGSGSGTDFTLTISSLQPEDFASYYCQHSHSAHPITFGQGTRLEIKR	0.000773

Form: binder = H4H14757P (antibody, human IgG4 S228P, kappa, V domains shown) VH: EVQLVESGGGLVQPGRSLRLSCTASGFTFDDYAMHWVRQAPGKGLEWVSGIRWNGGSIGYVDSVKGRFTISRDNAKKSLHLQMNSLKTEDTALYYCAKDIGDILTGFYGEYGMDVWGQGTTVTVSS VL: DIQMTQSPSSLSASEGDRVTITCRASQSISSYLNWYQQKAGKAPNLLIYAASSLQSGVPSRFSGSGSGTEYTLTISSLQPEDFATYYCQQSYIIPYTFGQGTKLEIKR ; koff = 0.000396
